# ASSAY OVERVIEW: Clearance in human liver microsomes assessed as compound extraction at 5 uM
# Type: ADME, microsome
# RUN PARAMETERS: read-out: CLH
QUANTITY MEASURED: hepatic extraction ratio at 5 µM
Give bare numbers.

NC(=O)c1cc(Cl)c2c(Cl)c(C3CC3)n(C3CCCNC3)c2n1 (racemic) : 0.02
NC(=O)c1cc(Cl)c2c(Cl)c(I)n(C3CCCNC3)c2n1 (racemic) : 0.35

Need hepatic extraction ratio at 5 µM of NC(=O)c1cc(Cl)c2c(Cl)c(C#CC3CC3)n(C3CCCNC3)c2n1 (racemic) , thanks. 0.21

----------
Serine/threonine-protein kinase pim-2 (Homo sapiens, UniProt Q9P1W9): reported log10(IC50) for various compounds.
Each number you see is log10 of IC50, and the unit inside the log is nM.

Field: example entries. Status: answers known.
CCN(CC)CCn1c(I)c(Cl)c2c(Cl)cc(C(N)=O)nc21 : 3.87
NC(=O)c1cc(Cl)c2c(Cl)c(I)n(CC3CCCN3)c2n1 (racemic) : 2.58
NC(=O)c1cc(Cl)c2c(Cl)c(C3CC3)n([C@@H]3CCCNC3)c2n1 : 1.34

Your task in this section: give log10(IC50) for each listed record.
1. NC(=O)c1cc(Cl)c2c(Cl)c(I)n(CC3CCNC3)c2n1 (racemic)
2. NC(=O)c1cc(Cl)c2c(Cl)c(I)n(C3CCNCC3)c2n1
3. NC(=O)c1cc(Cl)c2c(Cl)c(I)n(C3CN4CCC3CC4)c2n1 (racemic)

1. 1.36
2. 1.45
3. 2.00

----------
# STUDY SYSTEM: Voltage-gated inwardly rectifying potassium channel KCNH2 (Homo sapiens)
# ASSAY OVERVIEW: Inhibition of human ERG by patch clamp assay
QUANTITY MEASURED: IC50 (nM)
One number for each entry, in nM.

NC(=O)c1cc(Cl)c2c(Cl)c(C3CC3)n([C@@H]3CCCNC3)c2n1 : 1500
NC(=O)c1cc(Cl)c2c(Cl)c(C#CC3CC3)n(C3CCCNC3)c2n1 (racemic) : 1000

Your task in this section: give IC50 for each listed record.
1. NC(=O)c1cc(Cl)c2c(Cl)c(C3CC3)n(C3CCCNC3)c2n1 (racemic)
2. NC(=O)c1cc(Cl)c2c(Cl)c(C3CC3)n([C@H]3CCCNC3)c2n1

1: 2900; 2: 2900

----------
# ASSAY OVERVIEW: Half life in rat at 3 mg/kg, iv administered as single dose
# Type: ADME, organism-based
# RUN PARAMETERS: in vivo
QUANTITY MEASURED: half-life (h)
One number for each entry, in h.

Need half-life of NC(=O)c1cc(Cl)c2c(Cl)c(C3CC3)n([C@H]3CCCNC3)c2n1 , thanks. 13.6

----------
Field: pIC50. Provide a value for each of the compounds that follow.
# STUDY SYSTEM: Serine/threonine-protein kinase pim-1 (Homo sapiens, UniProt P11309)
# ASSAY OVERVIEW: Inhibition of PIM1 (unknown origin) assessed as reduction in BAD phosphorylation at Ser112 residues by TR-FRET assay
One number for each entry, as −log10 of the molar value.

Field: example entries. Status: answers known.
NC(=O)c1cc(Cl)c2c(Cl)c(I)n(C3CCC(N)CC3)c2n1 (stereo not given) : 9.00
NC(=O)c1cc(Cl)c2c(Cl)c(C3CCCO3)n(C3CCCNC3)c2n1 (stereo not given) : 7.51
Cn1cc(-c2c(Cl)c3c(Cl)cc(C(N)=O)nc3n2C2CCCNC2)cn1 (stereo not given) : 9.00
NC(=O)c1cc(Cl)c2c(Cl)c(I)n(C3CCCC(N)C3)c2n1 (racemic) : 9.00

Your task in this section: give pIC50 for each listed record.
1. NC(=O)c1cc(Cl)c2c(Cl)c(I)n(C3CCNC(=O)C3)c2n1 (racemic)
2. NC(=O)c1cc(Cl)c2c(Cl)c(-c3ccccc3)n(C3CCCNC3)c2n1 (stereo not given)
3. CC(C)=Cc1c(Cl)c2c(Cl)cc(C(N)=O)nc2n1C1CCCNC1 (stereo not given)
4. Cn1c(I)c(Cl)c2c(Cl)cc(C(N)=O)nc21
5. NC(=O)c1cc(Cl)c2c(Cl)c(C3CC3)n([C@@H]3CCCNC3)c2n1
6. NC(=O)c1cc(Cl)c2c(Cl)c(C#CC3CC3)n(C3CCCNC3)c2n1 (racemic)

1. 7.49
2. 7.89
3. 8.40
4. 7.51
5. 8.40
6. 9.15

----------
# STUDY SYSTEM: Serine/threonine-protein kinase pim-1 (Homo sapiens, UniProt P11309)
# ASSAY OVERVIEW: Inhibition of PIM1 in human KG1 cells assessed as reduction in BAD phosphorylation
# Type: cell-based
QUANTITY MEASURED: pIC50
One number for each entry, as −log10 of the molar value.

NC(=O)c1cc(Cl)c2c(Cl)c(C3CC3)n(C3CCCNC3)c2n1 (racemic) : 6.94
NC(=O)c1cc(Cl)c2c(Cl)c(C#CC3CC3)n(C3CCCNC3)c2n1 (racemic) : 7.12
NC(=O)c1cc(Cl)c2c(Cl)c(C3CC3)n([C@H]3CCCNC3)c2n1 : 7.37

Entry NC(=O)c1cc(Cl)c2c(Cl)c(I)n(C3CCCNC3)c2n1 (racemic) , system Serine/threonine-protein kinase pim-1 (Homo sapiens, UniProt P11309): what pIC50 was measured? 7.33

----------
Field: log10 IC50. Provide a value for each of the molecules that follow.
# STUDY SYSTEM: Serine/threonine-protein kinase pim-3 (Homo sapiens)
# ASSAY OVERVIEW: Inhibition of PIM3 (unknown origin) assessed as reduction in BAD phosphorylation at Ser112 residues by TR-FRET assay
Each number you see is log10 of IC50, and the unit inside the log is µM.

NC(=O)c1cc(Cl)c2c(Cl)c(I)n(C3CCC(O)CC3)c2n1 (stereo unspecified) : -1.60
NC(=O)c1cc(Cl)c2c(Cl)c(I)n(C3CNC3)c2n1 : -0.46
NC(=O)c1cc(Cl)c2c(Cl)c(I)n(CCC3CCNCC3)c2n1 : -1.77
NC(=O)c1cc(Cl)c2c(Cl)c(I)n(C3CN4CCC3CC4)c2n1 (racemic) : -1.57
Cn1c(I)c(Cl)c2c(Cl)cc(C(N)=O)nc21 : -1.16

Your task in this section: give log10 IC50 for each listed record.
1. NC(=O)c1cc(Cl)c2c(Cl)c(I)n(C3CCCNCC3)c2n1 (racemic)
2. NC(=O)c1cc(Cl)c2c(Cl)c(I)n(C3CCCC(O)C3)c2n1 (racemic)
3. CN1CCC(n2c(I)c(Cl)c3c(Cl)cc(C(N)=O)nc32)CC1

[-2.52, -1.55, -2.22]

Your task in this section: give log10 IC50 for each listed record.
1. NC(=O)c1cc(Cl)c2c(Cl)c(I)n(C3CCNCC3)c2n1
2. NC(=O)c1cc(Cl)c2c(Cl)c(I)n(Cc3ccncc3)c2n1
3. NC(=O)c1cc(Cl)c2c(Cl)c(I)n(C3CCC(N)CC3)c2n1 (stereo unspecified)

1: -2.40; 2: 0.75; 3: -2.52

----------
# ASSAY OVERVIEW: Cmax in rat at 10 mg/kg, po administered as single dose
# Format: ADME, organism-based
# Set-up: dose 10 mg/kg, route oral
# RUN PARAMETERS: in vivo
QUANTITY MEASURED: Cmax
Give me the value, and tack the unit on after it.

Need Cmax of NC(=O)c1cc(Cl)c2c(Cl)c(C3CC3)n([C@H]3CCCNC3)c2n1 , thanks. 390 ng/mL

----------
# ASSAY OVERVIEW: Plasma concentration in SCID mouse xenografted with human KG1 cells at 25 mg/kg, po administered as single dose measured at 24 hrs
# Format: ADME, organism-based
QUANTITY MEASURED: concentration at 24 h

Need concentration at 24 h of NC(=O)c1cc(Cl)c2c(Cl)c(C3CC3)n([C@H]3CCCNC3)c2n1 , thanks. 8.21 µM

----------
Field: IC50. Provide a value for each of the compounds that follow.
# STUDY SYSTEM: Serine/threonine-protein kinase pim-1 (Homo sapiens, UniProt P11309)
# ASSAY OVERVIEW: Inhibition of PIM1 (unknown origin) assessed as reduction in BAD phosphorylation at Ser112 residues by TR-FRET assay
One number for each entry, in nM.

Field: example entries. Status: answers known.
NC(=O)c1cc(Cl)c2c(Cl)c(I)n(C3CCCC(O)C3)c2n1 (racemic) : 8
NC(=O)c1cc(Cl)c2c(Cl)c(I)n(C3CN4CCC3CC4)c2n1 (racemic) : 6
NC(=O)c1cc(Cl)c2c(Cl)c(I)n(CC3CCCN3)c2n1 (racemic) : 12
CN1CCC(n2c(I)c(Cl)c3c(Cl)cc(C(N)=O)nc32)CC1 : 2
NC(=O)c1cc(Cl)c2c(Cl)c(I)n(C3CCCNCC3)c2n1 (racemic) : 1
NC(=O)c1cc(Cl)c2c(Cl)c(I)n(CCC3CCNCC3)c2n1 : 3
NC(=O)c1cc(Cl)c2c(Cl)c(I)n(CC3CCNC3)c2n1 (racemic) : 1
NC(=O)c1cc(Cl)c2c(Cl)c(C3CC3)n([C@H]3CCCNC3)c2n1 : 1
NC(=O)c1cc(Cl)c2c(Cl)c(C(F)(F)F)n(C3CCCNC3)c2n1 (stereo not given) : 67

Okay, next one:
Entry COC/C=C/c1c(Cl)c2c(Cl)cc(C(N)=O)nc2n1C1CCCNC1 (stereo not given) , system Serine/threonine-protein kinase pim-1 (Homo sapiens, UniProt P11309): what IC50 was measured? 8
